Target: N2 neuraminidase from A/Leningrad/134/17/57 (Influenza A virus A/Leningrad/134/17/57, UniProt Q67214 1-469)
Sequence (Q67214 whole entry): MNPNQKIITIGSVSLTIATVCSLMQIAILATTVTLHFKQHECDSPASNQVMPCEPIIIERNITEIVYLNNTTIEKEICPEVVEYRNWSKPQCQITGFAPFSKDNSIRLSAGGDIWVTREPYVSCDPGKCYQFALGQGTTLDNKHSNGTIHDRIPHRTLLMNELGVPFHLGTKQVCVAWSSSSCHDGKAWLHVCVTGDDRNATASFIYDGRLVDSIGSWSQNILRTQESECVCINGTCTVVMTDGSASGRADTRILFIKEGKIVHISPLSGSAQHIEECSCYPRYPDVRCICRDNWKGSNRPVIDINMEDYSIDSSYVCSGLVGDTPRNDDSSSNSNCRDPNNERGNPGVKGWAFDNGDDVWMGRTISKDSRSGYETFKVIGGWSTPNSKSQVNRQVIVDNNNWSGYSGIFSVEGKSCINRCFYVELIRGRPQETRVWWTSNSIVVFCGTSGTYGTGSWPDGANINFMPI
Test: flow cytometry, NA on cells
RESULT_TYPE: binding result

1) v11.7 (antibody, V domains shown) VH: QVHLVQSGAEVKEPGSSVTVSCKASGGSFNNQAISWVRQAPGQGLEWMGGIFPISGTATYAQRFQGRVTITADESTTTVYMDLSSLRSDDTAVYYCARAGSDYFNRDLGWENYYFASWGQGTLVTVSS VL: EIVMTQSPATLSLSSGERATLSCRASRSVSSNLAWYQQKPGQAPRLLIYDASTRATGFSARFAGSGSGTEFTLTISSLQSEDSAIYYCQQYNIWPPWTFGQGTKVEIK :: binds
2) v8.7 (antibody, V domains shown) VH: QVHLVQSGAEVKEPGSSVTVSCKASGGTFNNQAISWVRQAPGQGLEWMGGIFPISGTPTSAQRFQGRVTFTADESTTTVYMDLSSLRSDDTAVYYCARAGSDYFNRDLGWENYYFASWGQGTLVTVSS VL: EIVMTQSPATLSLSSGERATLSCRASRSVSSNLAWYQQKPGQAPRLLIYDASTRATGFSARFAGSGSGTEFTLTISSLQSEDSAIYYCQQYNIWPPWTFGQGTKVEIK :: binds
3) v11.1 (antibody, V domains shown) VH: QVHLVQSGAEVKEPGSSVTVSCKASGGSFNNQAISWVRQAPGQGLEWMGGIFPISGTATYAQRFQGRVTITADESTTTVYMDLSSLRSDDTAVYYCARAGSDYFNRDLGWENYYFASWGQGTLVTVSS VL: EIVMTQSPATLSLSSGERATLSCRASRSVSSNLAWYQQKPGQAPRLLIYDASTRATGFSARFAGSGSGTEFTLTISSLQSEDSAIYYCQQYNNWPPWTFGQGTKVEIK :: binds
